B1: TPR t1 (parent)
chain: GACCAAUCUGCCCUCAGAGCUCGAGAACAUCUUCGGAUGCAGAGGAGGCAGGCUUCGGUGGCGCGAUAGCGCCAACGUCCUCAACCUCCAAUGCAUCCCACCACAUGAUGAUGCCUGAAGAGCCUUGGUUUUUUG

# Variants of: B1
# Assay details: polymerase ribozyme fitness, log enrichment relative to wild type (log ratio); higher = more active; in vitro selection for triplet polymerase activity
Classify by measured polymerase ribozyme fitness (log ratio): true if it is equal to or exceeds -0.9, false if it is smaller.

G77C C88A ... true

Please find the next variant below.
## Input Quick check, polymerase ribozyme fitness (log ratio) >= -0.9? C11G C76A U112A G117C G128C U134G
## Output false
